FYI, the data here is from paper PMC11233931.

# test.details: Mouse pharmacokinetics study
# Type: in vivo
# condition.description: male, ICR, plasma, mice, ip. 10 mg/kg, mean ± SD
assay.endpoint: Cmax (ng/mL)

- C=CC(=O)Nc1cc(-c2cc(-c3cc4c([nH]3)CCNC4=O)ccn2)ccc1OC(F)(F)F [compound 11]: 126

###

# tgt: MK3 (Homo sapiens)
# Construct: purchased Eurofins (Celle Lévescault)
# Sequence (Q16644 whole entry): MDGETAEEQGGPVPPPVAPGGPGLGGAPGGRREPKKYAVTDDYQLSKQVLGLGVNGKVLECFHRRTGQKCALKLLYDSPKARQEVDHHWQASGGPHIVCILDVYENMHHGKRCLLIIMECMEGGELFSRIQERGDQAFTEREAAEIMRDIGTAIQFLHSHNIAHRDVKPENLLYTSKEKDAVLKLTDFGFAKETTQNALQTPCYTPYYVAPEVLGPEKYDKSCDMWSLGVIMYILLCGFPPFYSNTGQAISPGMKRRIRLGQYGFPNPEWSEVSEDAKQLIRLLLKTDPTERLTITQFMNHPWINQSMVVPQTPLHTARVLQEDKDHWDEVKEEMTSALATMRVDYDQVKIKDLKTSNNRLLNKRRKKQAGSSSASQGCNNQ
# test.details: Eurofins kinase selectivity profile, MK3
# Type: biochemical
assay.endpoint: IC50

* C=CC(=O)Nc1cc(-c2cc(-c3cc4c([nH]3)CCNC4=O)ccn2)ccc1OC(F)(F)F [compound 11] | > 100 nM

###

# tgt: TTK (Homo sapiens, UniProt P33981)
# Construct: purchased Eurofins (Celle Lévescault)
# Sequence (P33981 whole entry): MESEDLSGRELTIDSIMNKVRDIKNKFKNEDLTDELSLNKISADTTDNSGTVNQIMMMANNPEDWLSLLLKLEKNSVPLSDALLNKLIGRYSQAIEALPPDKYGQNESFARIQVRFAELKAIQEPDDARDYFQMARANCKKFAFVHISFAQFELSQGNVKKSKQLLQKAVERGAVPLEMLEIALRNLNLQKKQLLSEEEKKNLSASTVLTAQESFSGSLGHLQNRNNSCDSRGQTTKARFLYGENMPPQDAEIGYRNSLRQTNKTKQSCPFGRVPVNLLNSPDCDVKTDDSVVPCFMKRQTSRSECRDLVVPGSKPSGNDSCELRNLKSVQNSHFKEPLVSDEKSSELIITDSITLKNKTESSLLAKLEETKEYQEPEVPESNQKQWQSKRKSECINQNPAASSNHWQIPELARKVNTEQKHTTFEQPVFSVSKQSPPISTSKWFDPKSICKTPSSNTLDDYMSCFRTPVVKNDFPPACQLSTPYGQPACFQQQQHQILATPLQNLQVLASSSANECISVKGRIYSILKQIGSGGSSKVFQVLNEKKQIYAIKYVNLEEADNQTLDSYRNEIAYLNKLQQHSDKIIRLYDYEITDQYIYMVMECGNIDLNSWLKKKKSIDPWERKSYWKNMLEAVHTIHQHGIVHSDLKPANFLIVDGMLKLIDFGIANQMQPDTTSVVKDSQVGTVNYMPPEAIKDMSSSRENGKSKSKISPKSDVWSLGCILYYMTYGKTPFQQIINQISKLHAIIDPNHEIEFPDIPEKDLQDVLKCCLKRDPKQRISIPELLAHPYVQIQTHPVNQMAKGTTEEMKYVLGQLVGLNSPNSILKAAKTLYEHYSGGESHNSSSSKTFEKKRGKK
# test.details: Eurofins kinase selectivity profile, TTK
# Format: biochemical
assay.endpoint: IC50

* C=CC(=O)Nc1cc(-c2cc(-c3cc4c([nH]3)CCNC4=O)ccn2)ccc1OC(F)(F)F [compound 11] | > 1000 nM

###

# test.details: Cell viability assay (CCK-8), HCC44
# Format: cell-based
# condition.description: HCC44 cells (non-small cell lung carcinoma), HCC44, human non-small cell lung carcinoma, read-out: IC50 (μM) mean ± SD, cytotoxicity
assay.endpoint: IC50 at 72 h (µM)

• C=CC(=O)Nc1cc(-c2cc(-c3cc4c([nH]3)CCNC4=O)ccn2)ccc1OC(F)(F)F = 32.3

###

# test.details: Mouse pharmacokinetics study
# Format: in vivo
# condition.description: male, ICR, plasma, mice, ip. 10 mg/kg, mean ± SD, read-out: AUCinf_obc
assay.endpoint: AUC (ng·h/mL)

• C=CC(=O)Nc1cc(-c2cc(-c3cc4c([nH]3)CCNC4=O)ccn2)ccc1OC(F)(F)F = 45.2

###

# tgt: p70S6Kb (Homo sapiens, UniProt Q9UBS0)
# Construct: purchased Eurofins (Celle Lévescault)
# Sequence (Q9UBS0 whole entry): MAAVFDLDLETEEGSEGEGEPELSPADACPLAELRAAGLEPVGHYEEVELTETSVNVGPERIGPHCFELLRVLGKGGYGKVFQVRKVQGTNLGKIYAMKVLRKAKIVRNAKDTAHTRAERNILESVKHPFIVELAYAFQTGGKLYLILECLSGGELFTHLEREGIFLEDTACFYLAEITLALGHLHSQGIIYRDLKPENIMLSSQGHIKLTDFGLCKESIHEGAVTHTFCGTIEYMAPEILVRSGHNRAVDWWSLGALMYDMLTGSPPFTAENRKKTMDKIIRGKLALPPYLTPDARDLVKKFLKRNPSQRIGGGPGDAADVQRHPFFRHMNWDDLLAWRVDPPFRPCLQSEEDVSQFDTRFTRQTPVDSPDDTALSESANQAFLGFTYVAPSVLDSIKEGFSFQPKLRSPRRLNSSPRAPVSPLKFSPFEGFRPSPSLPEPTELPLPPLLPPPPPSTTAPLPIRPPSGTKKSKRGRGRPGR
# test.details: Eurofins kinase selectivity profile, p70S6Kb
# Assay type: biochemical
assay.endpoint: IC50

• C=CC(=O)Nc1cc(-c2cc(-c3cc4c([nH]3)CCNC4=O)ccn2)ccc1OC(F)(F)F [compound 11] = > 1000 nM

###

# test.details: Cell viability assay (CCK-8), MIA Paca-2
# Assay type: cell-based
# condition.description: MIA Paca-2 cells (pancreatic carcinoma), MIA Paca-2, human pancreatic carcinoma, read-out: IC50 (μM) mean ± SD, cytotoxicity
assay.endpoint: IC50 at 72 h (µM)

- C=CC(=O)Nc1cc(-c2cc(-c3cc4c([nH]3)CCNC4=O)ccn2)ccc1OC(F)(F)F [compound 11]: 47.8
